Sourced from patent EP4671273A1

Measured kon by item
target: T1, rhIL-21-His (AB235875-1001, Abcam) (human, UniProt Q9HBE4 30-162); assay: SPR, Fab on captured rhIL-21-His
T1 construct: bought; not shown: His tag, length and position not described
T1 sequence (Q9HBE4 30-162 limits assumed): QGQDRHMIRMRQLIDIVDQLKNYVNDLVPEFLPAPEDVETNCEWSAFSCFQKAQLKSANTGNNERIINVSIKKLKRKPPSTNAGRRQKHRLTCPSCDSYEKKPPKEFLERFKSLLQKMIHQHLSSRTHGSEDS
Write the value in M⁻¹ s⁻¹ as a bare number.

[[record]]
binder = "ZXI489 Fab (Fab, V domains shown, Fab) VH: QVQLQESGPGLVKPSETLSLTCTVSGGSISSDYWGWIRQPPGKGLEWIGYISYRGSTNYNPSLKSRVTISVDTSRNQFSLKLSSVTAADTAVYYCARSAGVTDFDWWGQGTLVTVSS VL: DIQLTQSPSSVSASVGDRVTITCRASQGISSWLAWYQHKPGKAPKLLIYVASSLQSGVPSRFSGSGSGTDFTLTISSLQPEDFATYYCQQASSAPLTFGGGTKVEIK"
quantityunit = "M⁻¹ s⁻¹"
obsvalue = 688000


input: Dear colleague, I am looking for the recorded kon of the following binder: EJT070 Fab (Fab, V domains shown, Fab) VH: QVQLQESGPGLVKPSETLSLTCTVSGGSISSDYWGWIRQPPGKGLEWIGYISYSGSTNYNPSLKSRVTISVDTSRNQFSLKLSSVTAADTAVYYCARSAGVADFDFWGQGTLVTVSS VL: DIQLTQSPSSVSASVGDRVTITCRASQGISSWLAWYQHKPGKAPKLLIYVASSLQSGVPSRFSGSGSGTDFTLTISSLQPEDFATYYCQQASSFPLTFGGGTKVEIK
output: 250000

input: Return reported kon; argument: IOO459 Fab (Fab, V domains shown, Fab) VH: QVQLQESGPGLVKPSETLSLTCTVSGGSISSDYWGWIRQPPGKGLEWIGYISSRGSTNYNPSLKRRVTISVDTSRNQFSLKLSSVTAADTAVYYCARSAGVADFDFWGQGTLVTVSS VL: DIQMTQSPSSVSASVGDRVTITCRASQGISSWLAWYQHKPGKAPKLLIYVASSLQSGVPSRFSGSGSGTDFTLTISSLQPEDFATYYCQQANSAPLTFGGGTKVEIK
output: 1.42e+06

input: What kon value was documented for this binder, RPD212 Fab (Fab, V domains shown, Fab) VH: QVQLQESGPGLVKPSETLSLTCTVSGGSISSDYWGWIRQPPGKGLEWIGYISYSGSTNYNPSLKSRVTISVDTSRNQFSLKLSSVTAADTAVYYCARSAGVTDFDAWGQGTLVTVSS VL: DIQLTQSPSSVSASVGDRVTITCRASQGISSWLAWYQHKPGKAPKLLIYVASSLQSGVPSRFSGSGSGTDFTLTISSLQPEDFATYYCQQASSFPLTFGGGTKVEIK ?
output: 130000

input: Please give the measured kon for this binder: CLJ397 Fab (Fab, V domains shown, Fab) VH: QVQLQESGPGLVKPSETLSLTCTVSGGSISSDYWGWIRQPPGKGLEWIGYISYRGSTNYNPSLKSRVTISVDTSRNQFSLKLSSVTAADTAVYYCARSAGVADFDAWGQGTLVTVSS VL: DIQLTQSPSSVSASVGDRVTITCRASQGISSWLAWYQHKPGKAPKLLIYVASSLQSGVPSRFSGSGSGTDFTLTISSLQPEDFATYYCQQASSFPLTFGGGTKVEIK
output: 270000
